Here the recorded selective drug sensitivity score is given for each entry.
System: KASUMI-10
Assay: selective drug sensitivity score (sDSS, relative to normal bone marrow) (sDSS (score)); higher = more potent and effective on the cell line relative to normal bone marrow cells;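 also: ALL cell lines in 384-well plates, five doses spanning 10,000-fold, each plate scaled between vehicle and 100 µmol/L benzalkonium chloride controls, sDSS an adapted area-under-curve metric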
Settings: 72 h

Solved entries (count: 3):
CCc1cnn2c(NCc3ccc[n+]([O-])c3)cc(N3CCCC[C@H]3CCO)nc12 [Dinaciclib] (top concentration 1000 nM): -2.24
CC1=NN(c2ccc(C(=O)O)cc2)C(=O)C1=Cc1ccc(-c2cc(C)c(C)cc2[N+](=O)[O-])o1 [C646] (top concentration 25000 nM): -0.36
Cc1cc(-c2nc(-c3ccc(OC(F)(F)F)cc3)no2)nn1Cc1ccnc(N2CCN(C3CC3)CC2)c1 [BAY_87-2243] (top concentration 1000 nM): -6.66

// switching to the query compound
For Nc1nc(OCc2cc(Br)cs2)c2[nH]cnc2n1 [Lomeguatrib] (top concentration 10000 nM) , what is its reported selective drug sensitivity score?
0

###

System: TANOUE
Assay: selective drug sensitivity score (sDSS, relative to normal bone marrow) (sDSS (score)); higher = more potent and effective on the cell line relative to normal bone marrow cells
Details: 72 h
Everything with selective drug sensitivity score lower than -5 is condition not met; everything else, including exactly -5, is condition met.

CCN(CC)CCCC(C)Nc1ccnc2cc(Cl)ccc12 (stereo unspecified) [Chloroquine] (top concentration 100000 nM): condition not met
O=C(Nc1cc(Oc2cc(F)c(NC(=O)C3(C(=O)Nc4ccc(F)cc4)CC3)cc2F)ccn1)C1CC1 [Altiratinib] (top concentration 10000 nM): condition met
Nc1nc(F)nc2c1ncn2[C@@H]1O[C@H](CO)[C@@H](O)[C@@H]1O [Fludarabine] (top concentration 10000 nM): condition not met

Hi, just wondering whether CN1CCN(c2nc(C3=C(c4c[nH]c5ccccc45)C(=O)NC3=O)c3ccccc3n2)CC1 [Sotrastaurin] (top concentration 10000 nM) shows selective drug sensitivity score of -5 or higher.
condition met

Check COc1cc2/c(=N/c3ccc(Br)cc3F)nc[nH]c2cc1OCC1CCN(C)CC1 [Vandetanib] (top concentration 1000 nM) too.
condition met

Check CN1CCC(COc2cnc(-c3cccc(Cn4nc(-c5cccc(C#N)c5)ccc4=O)c3)nc2)CC1 [Tepotinib] (top concentration 1000 nM) too.
condition met

Check Cc1nc(-c2cn3c(n2)-c2ccc(-c4cnn(C(C)(C)C(N)=O)c4)cc2OCC3)n(C(C)C)n1 [Taselisib] (top concentration 1000 nM) too.
condition met

Check NS(=O)(=O)OC[C@@H]1C[C@@H](n2ccc3c(N[C@H]4CCc5ccccc54)ncnc32)C[C@@H]1O [Pevonedistat] (top concentration 10000 nM) too.
condition met

Check CS(=O)(=O)N1CCN(Cc2cc3nc(-c4cccc5[nH]ncc45)nc(N4CCOCC4)c3s2)CC1 [Pictilisib] (top concentration 10000 nM) too.
condition not met

Check CC(=O)Nc1cccc(-n2c(=O)n(C3CC3)c(=O)c3c(Nc4ccc(I)cc4F)n(C)c(=O)c(C)c32)c1 [Trametinib] (top concentration 250 nM) too.
condition not met

Check CO[C@H]1C[C@@H]2CC[C@@H](C)[C@@](O)(O2)C(=O)C(=O)N2CCCC[C@H]2C(=O)O[C@H]([C@H](C)C[C@@H]2CC[C@@H](OP(C)(C)=O)[C@H](OC)C2)CC(=O)[C@H](C)/C=C(\C)[C@@H](O)[C@@H](OC)C(=O)[C@H](C)C[C@H](C)/C=C/C=C/C=C/1C [Ridaforolimus] (top concentration 100 nM) too.
condition met
